Biological target: hCB1 (Homo sapiens)
Sequence (P21554 whole entry): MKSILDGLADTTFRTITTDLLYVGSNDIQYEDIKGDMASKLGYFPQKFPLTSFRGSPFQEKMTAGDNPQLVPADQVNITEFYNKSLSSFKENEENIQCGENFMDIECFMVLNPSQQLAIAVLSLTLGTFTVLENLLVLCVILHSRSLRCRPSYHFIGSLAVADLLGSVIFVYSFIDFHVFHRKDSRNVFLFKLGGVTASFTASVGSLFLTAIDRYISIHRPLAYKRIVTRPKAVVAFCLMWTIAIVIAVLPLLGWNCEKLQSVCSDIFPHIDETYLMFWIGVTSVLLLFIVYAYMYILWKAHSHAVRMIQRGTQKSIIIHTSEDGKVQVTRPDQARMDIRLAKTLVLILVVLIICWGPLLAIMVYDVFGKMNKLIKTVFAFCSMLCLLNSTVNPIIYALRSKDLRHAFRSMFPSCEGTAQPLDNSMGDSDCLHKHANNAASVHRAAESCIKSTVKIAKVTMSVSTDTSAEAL
Test: bioSensAll ebBRET signaling profiling, hCB1
Format: cell-based
Parameters: host or cells: HEK293SL cells, transient PEI transfection
Conditions: Log [Compound] (M) -12.8861; single replicate values, FigS6a
Reported Endpoint: GoB hCB1
Simply state the number, no unit and no words.

Query: GoB hCB1 for COC(=O)C(NC(=O)c1cc(C)n(-c2cccc(F)c2)n1)c1cccs1 (centres unmarked) [‘51486] ?
Response: -2.798

Query: GoB hCB1 for Cc1nn(Cc2ccc(Cl)cc2)c(C)c1C(=O)OCC1CSc2ccccc2O1 (centres unmarked) [‘5463] ?
Response: -4.451

Query: GoB hCB1 for Cc1cc(C(=O)NC(c2ccco2)c2ccco2)nn1-c1cccc(C(F)(F)F)c1 [‘1090] ?
Response: 4.557

Query: GoB hCB1 for Cc1cc(C(=O)N(C)C(c2ccccc2)c2ccco2)nn1-c1cccc(C(F)(F)F)c1 (centres unmarked) [‘1082] ?
Response: 1.626

Query: GoB hCB1 for Brc1cc2c(cc1Cc1noc(-c3cnn(CC4CC4)c3)n1)OCO2 [‘5424] ?
Response: -4.242
